From: ChEMBL document CHEMBL1833925

# systemName: Glycogen synthase kinase-3 beta (Homo sapiens)
# Sequence (P49841 whole entry): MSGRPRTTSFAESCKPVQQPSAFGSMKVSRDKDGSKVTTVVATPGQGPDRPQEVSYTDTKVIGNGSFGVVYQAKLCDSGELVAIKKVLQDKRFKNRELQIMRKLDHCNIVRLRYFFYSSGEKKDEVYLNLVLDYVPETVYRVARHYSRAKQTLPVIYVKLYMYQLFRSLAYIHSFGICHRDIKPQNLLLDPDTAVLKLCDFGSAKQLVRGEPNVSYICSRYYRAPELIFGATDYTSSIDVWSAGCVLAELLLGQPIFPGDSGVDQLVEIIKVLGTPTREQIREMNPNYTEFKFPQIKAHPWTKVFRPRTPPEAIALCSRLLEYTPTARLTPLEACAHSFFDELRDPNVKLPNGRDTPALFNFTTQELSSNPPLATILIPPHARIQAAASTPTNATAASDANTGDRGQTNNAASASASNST
# assayMethodText: Inhibition of human recombinant full length GSK3-beta after 1 hrs by luminescence assay
observable: IC50 (nM)

Report IC50 for `Nc1c(F)c(NCCNc2ccccn2)c(F)c2c1c(=O)c(C(=O)O)cn2C1CCCC1` please.
22

Report IC50 for `Nc1c(F)c(NCCn2ccnc2)c(F)c2c1c(=O)c(C(=O)O)cn2C1CC1` please.
3400

Report IC50 for `Nc1c(F)c(NCCNc2ccccn2)c(F)c2c1c(=O)c(C(=O)O)cn2C1CC1` please.
190

Report IC50 for `COc1c(NCCCc2ccccc2)c(F)c(N)c2c(=O)c(C(=O)O)cn(C3CC3)c12` please.
65

a: CC(C)[C@H]1COc2c(NCCNc3ccccn3)c(F)c(N)c3c(=O)c(C(=O)O)cn1c23
b: Nc1c(F)c(NCCNc2ccccn2)c2c3c1c(=O)c(C(=O)O)cn3C1(CCCC1)CO2
c: Nc1c(F)c(NC2CCCCC2)c(F)c2c1c(=O)c(C(=O)O)cn2C1CC1
d: COc1c(NCCCc2ccccc2)c(F)cc2c(=O)c(C(=O)O)cn(C3CC3)c12
e: CC(C)[C@@H]1COc2c(NCCNc3ccccn3)c(F)c(N)c3c(=O)c(C(=O)O)cn1c23
Rank order required: IC50, descending. Output spec: labels arranged per the requested ranking.
d, c, a, e, b
